Give measured pKa for each item. Keep answers brief.
Lab note: jot down the number only; don't add units.

Looking up COc1cc(NS(C)(=O)=O)ccc1Nc1c2ccccc2nc2cc(Cl)ccc12 , I see its pKa listed as 6.84

Looking up Oc1cc(C2CCNCC2)on1 , I see its pKa listed as 10.3

Looking up BP(=O)(OC[C@H]1O[C@@H](n2cnc3c(N)nc(SC)nc32)[C@H](O)[C@@H]1O)OP(=O)(O)CP(=O)(O)O (stereo not given in full) , I see its pKa listed as 8.4

Looking up CN(C)CCNC(=O)c1cccc2ccc(-c3ccccc3)nc12 , I see its pKa listed as 2.75

Looking up CC(=O)N[C@@H](Cc1cc(F)cc(F)c1)[C@H](O)CNC1(c2cc(C(C)(C)C)ncn2)CCCCC1 , I see its pKa listed as 6.7

Looking up CCOc1cccc2c(Nc3ccc(NS(C)(=O)=O)cc3OC)c3ccccc3nc12 , I see its pKa listed as 7.37

Looking up Ic1ccc(Nc2c3ccccc3nc3ccccc23)cc1 , I see its pKa listed as 6.9

Looking up CC12CC3CC(C1)CC(N)(C3)C2 , I see its pKa listed as 10.6

Looking up Cc1cnc(NCCc2ccccc2)c(=O)n1CC(=O)NCc1ccc(C(=N)N)cc1 , I see its pKa listed as 10.2

Looking up COc1cc(NS(C)(=O)=O)ccc1Nc1c2ccccc2nc2c(C(N)=O)cccc12 , I see its pKa listed as 6.37

====

Note to self: values exactly at 6 are 1. So pKa at or above 6 is 1, below is 0.

Query :: Please indicate if the recorded pKa for O=S1NC(CCc2ccccc2)=NO1 (stereo not given) meets or exceeds 6.
Result :: 0

Query :: Please indicate if the recorded pKa for Cc1ccc(C(=O)c2ccc(CC(=O)O)n2C)cc1 meets or exceeds 6.
Result :: 0

Query :: Please indicate if the recorded pKa for c1ccc(-c2ncc[nH]2)nc1 meets or exceeds 6.
Result :: 0

Query :: Please indicate if the recorded pKa for FC1(F)CCNCC1 meets or exceeds 6.
Result :: 1

Query :: Please indicate if the recorded pKa for Cc1nc2c(OCc3ccccc3)cccn2c1N meets or exceeds 6.
Result :: 1

Query :: Please indicate if the recorded pKa for O=C(O)CCc1ccc(Nc2c3ccccc3nc3ccccc23)cc1 meets or exceeds 6.
Result :: 1

Query :: Please indicate if the recorded pKa for Cc1cc(Cl)cc(Cl)c1N=C1NCCN1 meets or exceeds 6.
Result :: 1

Query :: Please indicate if the recorded pKa for c1ccc(CN2CCN(CCCc3c[nH]c4ccc(-n5cnnc5)cc34)CC2)cc1 meets or exceeds 6.
Result :: 1

Query :: Please indicate if the recorded pKa for Oc1nsc2c1CNCC2 meets or exceeds 6.
Result :: 1

Query :: Please indicate if the recorded pKa for CCC12CCC(=O)C=C1c1c(cc(OCC(=O)OC(C)(C)C(=O)O)c(Cl)c1Cl)C2 (stereo not given) meets or exceeds 6.
Result :: 0

Query :: Please indicate if the recorded pKa for Oc1cc(C2=CCNCC2)on1 meets or exceeds 6.
Result :: 1

Query :: Please indicate if the recorded pKa for Cc1ncc2n1-c1ccc(Cl)cc1C(c1ccccc1F)=NC2 meets or exceeds 6.
Result :: 0

Query :: Please indicate if the recorded pKa for CNCC[C@@H](Oc1ccccc1C)c1ccccc1 meets or exceeds 6.
Result :: 1

Query :: Please indicate if the recorded pKa for O=C(O)CCCc1ccc(N(CCCl)CCCl)cc1 meets or exceeds 6.
Result :: 0

Query :: Please indicate if the recorded pKa for O=C(O)[C@H]1O[C@@H](O)[C@H](O)[C@@H](O)[C@@H]1O meets or exceeds 6.
Result :: 0

Query :: Please indicate if the recorded pKa for Cc1cc(Cl)ccc1N=C1NCCN1 meets or exceeds 6.
Result :: 1

Query :: Please indicate if the recorded pKa for CCc1cccc(CC)c1NC1=NCCN1 meets or exceeds 6.
Result :: 1

Query :: Please indicate if the recorded pKa for COc1cc(NS(C)(=O)=O)ccc1Nc1c2ccccc2nc2c(OCCCC(N)=O)cccc12 meets or exceeds 6.
Result :: 1

Query :: Please indicate if the recorded pKa for Cc1cnc(NCC(F)(F)c2ccc(F)cc2)c(=O)n1CC(=O)NCc1cnc(N)cn1 meets or exceeds 6.
Result :: 0

Query :: Please indicate if the recorded pKa for O=C(Nc1ccccc1)Nc1ccc(Nc2c3ccccc3nc3ccccc23)cc1 meets or exceeds 6.
Result :: 1

Query :: Please indicate if the recorded pKa for COc1cccc(S(=O)(=O)Nc2cccn(CC(=O)NCc3nc(C(=N)N)cs3)c2=O)c1 meets or exceeds 6.
Result :: 1

Query :: Please indicate if the recorded pKa for CCNc1ccc(Nc2c3ccccc3nc3ccccc23)cc1 meets or exceeds 6.
Result :: 1

Query :: Please indicate if the recorded pKa for BP(=O)(OC[C@H]1O[C@@H](n2cnc3c(N)ncnc32)[C@H](O)[C@@H]1O)OP(=O)(O)C(Cl)(Cl)P(=O)(O)O (stereo not given in full) meets or exceeds 6.
Result :: 1

Query :: Please indicate if the recorded pKa for Cc1cnc(NCCc2ccccc2)c(=O)n1CC(=O)NCc1cnc(N)cn1 meets or exceeds 6.
Result :: 0
